molecular target: MAST2, Q6P0Q8; assay: holdup assay; parameters: key: below the threshold = too weak to quantify, mostly under pKd 3.1 to 4; details: plain residues with an end cap or a label only (N-terminal biotin on a linker: ado-ado)
Sequence (Q6P0Q8 1099-1202): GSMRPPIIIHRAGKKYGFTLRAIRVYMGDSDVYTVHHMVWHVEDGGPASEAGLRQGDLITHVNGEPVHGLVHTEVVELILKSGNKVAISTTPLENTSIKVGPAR
Outcome: Yes for pKd of at least 4; No for anything lower.

INSERT INTO assay_data (binder, category_label) VALUES
  ('KKMPSIESDV [GRIN2A, Q12879]', 'Yes'),
  ('PLSPEQPTKL [TRIM50, Q86XT4]', 'Yes'),
  ('DDENIRTSDV [PLEKHA2, Q9HB19]', 'Yes'),
  ('ETQVTAETVI [TMEM225B, P0DP42]', 'Yes'),
  ('SNAGNTATKA [NOSTRIN, Q8IVI9]', 'No'),
  ('LRSPRTPSEV [OR10G3, Q8NGC4]', 'No');
